Tested on: HCT-15 colon
EXPERIMENTAL_PROTOCOL: NCI-60 one-dose screen, 48 h (100 = growth as untreated, 0 = no growth, -100 = all killed)
TEST_PARAMETERS: 10 µM unless noted
The panel holds about 83,000 compounds, 20% with a hit somewhere; the sample as a whole holds those more often.
Consider the cut-off 60%. If the recorded growth is strictly smaller, the label is yes; if not, the label is no.

Enquiry: Dear reviewer, please state whether "CCOC(=O)c1c2c(n3cccc(F)c13)C(=O)c1ncccc1C2=O" has growth strictly beneath 60%.
Return: yes

====

Tested on: TK-10 renal
EXPERIMENTAL_PROTOCOL: NCI-60 one-dose screen, 48 h
TEST_PARAMETERS: 10 µM unless noted
Protocol: Growth inhibition of the TK-10 human tumor cell line is measured as a screen for anti-cancer activity. Cells are grown in 96 well plates and exposed to the test compound for 48 hours. Compounds are tested at a single concentration, which is 10^-5 M for most compounds. The reported endpoint is percent growth (GI% or GIPRCNT), where numbers from 0 - 100% represent growth inhibition, and numbers from -100% - 0 represent cell death. For example, a value of 40 represents 60% growth inhibition. […]
About 83,000 compounds went through this panel and 20% of them were active in at least one assay; those are over-represented in the sample as a whole. The source made the active and inactive calls. The calls were made as follows: active = growth percent below 10; inactive = the rest.
// one of active, inactive, no free text

Field: example entries. Status: answers known.
Cc1ccccc1/C=C/C(=O)c1cccc(OCCCCOc2cccc(C(=O)/C=C/c3ccccc3C)c2)c1 | inactive
C1CCC([PH+](C2CCCCC2)C2CCCCC2[PH+](C2CCCCC2)C2CCCCC2)CC1.[Au].[CH-]1CCCCC1C1CCCC[N-]1 (centres undefined) | active
CCOC(=O)c1cc2c(n1Cc1cc(OC)c(OC)c(OC)c1)-c1nc(N)sc1CCC2 | inactive

Attention now shifts to the item below.
Enquiry: # outcome recorded in this test, key = "N#Cc1nc(-c2ccc(Cl)cc2)oc1S(=O)(=O)N1CCN(c2ccc(F)cc2)CC1"
Return: inactive

====

System: UO-31 renal
EXPERIMENTAL_PROTOCOL: NCI-60 one-dose screen, 48 h (100 = growth as untreated, 0 = no growth, -100 = all killed)
TEST_PARAMETERS: 10 µM unless noted
This is part of a sample that, as a whole, favours compounds with a hit. Of some 83,000 tested, about 20% had one in any assay. Active and inactive are the calls of the source. Rule for the calls: active = growth percent below 10; inactive = the rest.
OBSERVED_PROPERTY: growth

COc1cc2c(c(OC)c1OC)CCC(c1cccc(C(=O)Nc3cccc(Cl)c3)c1)O2 (configuration not stated) | 40.8% (inactive)
O=S(=O)(NCCCNc1nccc(-c2c(-c3ccc(F)c(O)c3)nc3occn23)n1)c1ccc(Cl)cc1 | 36.4% (inactive)
C#COc1cccc(Nc2c(C#N)cnc3ncc(NC(=O)CCl)cc23)c1 | 41.1% [6.25 µM] (inactive)
c1csc(-c2ccc(CNc3c4ccccc4nc4ccccc34)cc2)c1 | 27.9% (inactive)
C#CCNC(=O)[C@H](CC)[C@H]1CC[C@H](C)[C@H]([C@@H](C)[C@H](O)[C@H](C)C(=O)[C@H](CC)C2O[C@]3(C=CC(=O)[C@]4(CC[C@@](C)([C@H]5CC[C@](O)(CC)[C@H](C)O5)O4)O3)[C@H](C)C[C@@H]2C)O1 (some centres not stated) | 47.9% (inactive)

Batch of 2 compounds: report growth for each.
1. Cc1cccc(CNc2c3ccccc3nc3ccccc23)c1
2. CCNCCNc1cc(C2CCCCC2)c(C#N)c2nc3ccccc3n12

Return:
1. 14.7% (inactive)
2. -41% (active)

Batch of 5 compounds: report growth for each.
1. O=C(NNC(=O)c1ccc(NC(=O)c2ccccn2)cc1)Nc1ccc([N+](=O)[O-])cc1
2. COc1ccc2c(c1)N(CCO)C1=C(C(=O)OC1)C2c1cccc(F)c1 (configuration not stated)
3. COC(=O)CC[C@H](C)[C@H]1CC[C@H]2[C@@H]3CC[C@@H]4CC5(CC[C@]4(C)[C@H]3CC(=O)[C@]12C)Nc1ccccc1NC5=NC(C)(C)C (some centres not stated)
4. O=C(Nc1ccc(Oc2cccc(Cl)c2)c(Cl)c1)c1cccnc1
5. O=C(/C=C/c1ccco1)Nc1ncc(Cc2cccc(C(F)(F)F)c2)s1

Return:
["75.8% (inactive)", "46.3% (inactive)", "88.7% (inactive)", "44.1% (inactive)", "11.8% (inactive)"]

Batch of 3 compounds: report growth for each.
1. COc1cc2ncnc(Nc3ccc(S(=O)(=O)Nc4cc(C)on4)cc3)c2cc1OCCCN1CCN(c2ccc(F)cc2)CC1
2. CCCCCC(/C=N\NC(=S)N/N=C/C(=C/c1ccccc1)CCCCC)=C\c1ccccc1
3. COc1ccc(-c2cc(-c3cccnc3)nc3sc4c(=O)[nH]c(-c5ccc(Cl)cc5)nc4c23)cc1OC

Return:
["77.5% (inactive)", "45.4% (inactive)", "78.1% (inactive)"]

Batch of 3 compounds: report growth for each.
1. Cc1c2cnccc2c(C)c2c1c1cc(C#N)ccc1n2C
2. CC(=O)N1N=C(c2ccc(Nc3nc(Nc4ccccc4)nc(Nc4ccccc4)n3)cc2)CC1c1ccccc1 (configuration not stated)
3. CN1C(=O)/C(=C\c2nc([P+](c3ccccc3)(c3ccccc3)c3ccccc3)c(N3CCOCC3)o2)SC1=S

Return:
1: -4.29% (active); 2: 73.5% (inactive); 3: 80.4% (inactive)
